The measured values listed here are drawn from patent US9006228B2.

The following compounds are shown together with reported EC50 values.
Target: human GPR119 (Homo sapiens, UniProt Q8TDV5)
Sequence (Q8TDV5 1-308 limits assumed): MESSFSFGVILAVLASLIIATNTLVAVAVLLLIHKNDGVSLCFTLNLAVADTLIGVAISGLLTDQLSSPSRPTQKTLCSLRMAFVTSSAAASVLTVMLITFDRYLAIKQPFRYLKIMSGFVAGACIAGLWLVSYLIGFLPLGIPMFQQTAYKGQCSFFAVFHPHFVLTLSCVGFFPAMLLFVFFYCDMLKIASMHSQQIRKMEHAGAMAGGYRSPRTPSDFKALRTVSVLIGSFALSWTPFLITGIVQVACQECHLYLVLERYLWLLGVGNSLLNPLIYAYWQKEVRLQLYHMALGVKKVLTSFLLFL
Assay: Measurement of GPR119 signaling (cAMP assay; LANCE kit or HTRF) in HEK293 cells stably transfected with human GPR119
Conditions: agonist-stimulated cAMP in HEK293 cells expressing human GPR119

Examples from the recorded data:
Cc1cnc(N2CCC([C@H]3C[C@H]3COCc3ccc(S(C)(=O)=O)cc3F)CC2)nc1 [Example 74]: 4.3 nM
CC(C)c1cnc(N2CCC([C@H]3C[C@H]3COCc3ccc(S(C)(=O)=O)cc3)CC2)nc1 [Example 23]: 0.26 nM
CC(C)(C)OC(=O)N1CCC([C@H]2C[C@H]2COCc2cc(F)c(S(C)(=O)=O)c(F)c2)CC1 [Example 44]: 14.8 nM

// sample CCS(=O)(=O)c1ccc(COC[C@@H]2C[C@@H]2C2CCN(c3nc(C4CC4)no3)CC2)cc1F [Example 39] , its EC50 was 0.6 nM

// sample CC(C)OC(=O)N1CCC([C@H]2C[C@H]2COCc2ccc(S(C)(=O)=O)cc2)CC1 [Example 9] , its EC50 was 16 nM

// sample CS(=O)(=O)c1ccc(COC[C@@H]2C[C@@H]2C2CCN(c3ncc(C=O)cn3)CC2)c(F)c1 [Example 71] , its EC50 was 13.6 nM

// sample CCc1cnc(N2CCC([C@H]3C[C@H]3COCc3ccc(-c4cnc(N)nc4)cc3F)CC2)nc1 [Example 103] , its EC50 was 2.5 nM
